targetOrTestSystem: GST-NbGlk1(82-244) (Nicotiana benthamiana)
Chain: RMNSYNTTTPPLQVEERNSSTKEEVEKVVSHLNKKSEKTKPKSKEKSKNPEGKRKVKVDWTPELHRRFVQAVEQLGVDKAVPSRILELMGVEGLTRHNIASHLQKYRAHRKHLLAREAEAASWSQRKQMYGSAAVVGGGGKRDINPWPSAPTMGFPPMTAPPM
protocol: protein-binding microarray; NbGlk1 is a Golden2-like transcription factor of Nicotiana benthamiana; high values mean tight binding
conditionInfo: protein: recombinant; tags: GST (pTH6838); dsDNA, one strand shown
Over roughly 16,000 sequences, “e-score” has its median near -0.044; the highest 2% begin near 0.38. The entries come from a sample that favours the highest values as a whole.
experimentalEndpoint: binding signal (E-score)
// units = E-score; emit number, no label

Would you mind telling me what binding signal value was observed for ATTCGGTA ?
0.241

Would you mind telling me what binding signal value was observed for AAGAGATC ?
0.377

Would you mind telling me what binding signal value was observed for ACGCTGAT ?
0.235

Would you mind telling me what binding signal value was observed for ATCGCCAC ?
0.22

Would you mind telling me what binding signal value was observed for AATATCGA ?
0.326

Would you mind telling me what binding signal value was observed for AATATCCG ?
0.426

Would you mind telling me what binding signal value was observed for AAAAAATC ?
0.439

Would you mind telling me what binding signal value was observed for AGAAAAAT ?
0.252

Would you mind telling me what binding signal value was observed for ATATTCCA ?
0.326

Would you mind telling me what binding signal value was observed for AGGAGAAT ?
0.267

Would you mind telling me what binding signal value was observed for CAATCATA ?
0.255

Would you mind telling me what binding signal value was observed for AATTATCC ?
0.204

Would you mind telling me what binding signal value was observed for AATCCCGA ?
0.358

Would you mind telling me what binding signal value was observed for ATTACTCA ?
0.208

Would you mind telling me what binding signal value was observed for ACACAAAT ?
0.204

Would you mind telling me what binding signal value was observed for ATCACAGA ?
0.217

Would you mind telling me what binding signal value was observed for AATCTGCC ?
0.34

Would you mind telling me what binding signal value was observed for ATCTTCCG ?
0.316

Would you mind telling me what binding signal value was observed for ATTCACAA ?
0.218

Would you mind telling me what binding signal value was observed for AGCGAAAT ?
0.343

Would you mind telling me what binding signal value was observed for AGCAAGAT ?
0.309

Would you mind telling me what binding signal value was observed for AGAAAATC ?
0.479

Would you mind telling me what binding signal value was observed for ATCAGTAA ?
0.214

Would you mind telling me what binding signal value was observed for AATTGGAT ?
0.2

Would you mind telling me what binding signal value was observed for ATTTCGGA ?
0.309

Would you mind telling me what binding signal value was observed for AATATCCA ?
0.396

Would you mind telling me what binding signal value was observed for CACACAGA ?
0.201

Would you mind telling me what binding signal value was observed for CAGATCGC ?
0.417

Would you mind telling me what binding signal value was observed for AAGATCGA ?
0.225

Would you mind telling me what binding signal value was observed for AGAAGATA ?
0.26

Would you mind telling me what binding signal value was observed for ATATTAAG ?
0.251

Would you mind telling me what binding signal value was observed for AATCAGAT ?
0.341

Would you mind telling me what binding signal value was observed for ACCGAAAT ?
0.338

Would you mind telling me what binding signal value was observed for ATCAAATC ?
0.36

Would you mind telling me what binding signal value was observed for ATTTCACC ?
0.214

Would you mind telling me what binding signal value was observed for ATCGAAAT ?
0.387

Would you mind telling me what binding signal value was observed for ACGATCGC ?
0.252

Would you mind telling me what binding signal value was observed for AGCGCAAT ?
0.303

Would you mind telling me what binding signal value was observed for ATTATCCG ?
0.279

Would you mind telling me what binding signal value was observed for ACGAGATA ?
0.275

Would you mind telling me what binding signal value was observed for AAAAAAAT ?
0.286

Would you mind telling me what binding signal value was observed for ACAATCAA ?
0.223

Would you mind telling me what binding signal value was observed for ACAATCAG ?
0.237

Would you mind telling me what binding signal value was observed for ATCTAAAA ?
0.244

Would you mind telling me what binding signal value was observed for ACGGATCT ?
0.265

Would you mind telling me what binding signal value was observed for AATATCCC ?
0.339

Would you mind telling me what binding signal value was observed for ATATTCCG ?
0.36

Would you mind telling me what binding signal value was observed for ATTTGTAC ?
0.228

Would you mind telling me what binding signal value was observed for ATCCCGGA ?
0.308

Would you mind telling me what binding signal value was observed for AACGATAT ?
0.29

Would you mind telling me what binding signal value was observed for ACCTGGAT ?
0.224

Would you mind telling me what binding signal value was observed for AATCCGTG ?
0.322

Would you mind telling me what binding signal value was observed for ATCTTAGA ?
0.243

Would you mind telling me what binding signal value was observed for ATGAGATC ?
0.369

Would you mind telling me what binding signal value was observed for AATCCTTG ?
0.336

Would you mind telling me what binding signal value was observed for ATTCTGCA ?
0.266

Would you mind telling me what binding signal value was observed for AATCTGCA ?
0.414

Would you mind telling me what binding signal value was observed for ATTCCTTA ?
0.228

Would you mind telling me what binding signal value was observed for ATCTGTAG ?
0.3

Would you mind telling me what binding signal value was observed for ATTGTGTG ?
0.203

Would you mind telling me what binding signal value was observed for ATCTCGGA ?
0.36

Would you mind telling me what binding signal value was observed for AGTCAGAT ?
0.208

Would you mind telling me what binding signal value was observed for AATATCAT ?
0.282

Would you mind telling me what binding signal value was observed for AATATATT ?
0.285

Would you mind telling me what binding signal value was observed for ATCAGATC ?
0.35

Would you mind telling me what binding signal value was observed for ACAATCGA ?
0.201

Would you mind telling me what binding signal value was observed for ACGAGATC ?
0.41

Would you mind telling me what binding signal value was observed for ATTCCGAG ?
0.275

Would you mind telling me what binding signal value was observed for ATATTCCC ?
0.393

Would you mind telling me what binding signal value was observed for AACGCGAT ?
0.341

Would you mind telling me what binding signal value was observed for AATCAGCA ?
0.322

Would you mind telling me what binding signal value was observed for ACAAGATC ?
0.295

Would you mind telling me what binding signal value was observed for ATTCCCTC ?
0.372

Would you mind telling me what binding signal value was observed for AATGGATA ?
0.3

Would you mind telling me what binding signal value was observed for AGGATACG ?
0.357

Would you mind telling me what binding signal value was observed for AATATCCT ?
0.389

Would you mind telling me what binding signal value was observed for AGGAGATA ?
0.228

Would you mind telling me what binding signal value was observed for ATCTTGAC ?
0.272

Would you mind telling me what binding signal value was observed for AAATAATA ?
0.227

Would you mind telling me what binding signal value was observed for ACCAAAAT ?
0.245

Would you mind telling me what binding signal value was observed for ATATGCTG ?
0.258

Would you mind telling me what binding signal value was observed for ATACGCAA ?
0.311

Would you mind telling me what binding signal value was observed for ACGGATAT ?
0.381

Would you mind telling me what binding signal value was observed for AATCGTGG ?
0.286

Would you mind telling me what binding signal value was observed for ATCTCACC ?
0.317

Would you mind telling me what binding signal value was observed for ATCGTCTA ?
0.208

Would you mind telling me what binding signal value was observed for AAATATAT ?
0.326

Would you mind telling me what binding signal value was observed for AAAGGAAT ?
0.27

Would you mind telling me what binding signal value was observed for AGGAGATC ?
0.382

Would you mind telling me what binding signal value was observed for AAGGATCT ?
0.335

Would you mind telling me what binding signal value was observed for AATGCGAT ?
0.246
